The reported numbers originate from PubChem BioAssay (NCI).

Test system: SNB-75 CNS
assay_notes: NCI-60 one-dose screen, 48 h (100 = growth as untreated, 0 = no growth, -100 = all killed)
details: 10 µM unless noted
About 83,000 compounds went through this panel and 20% of them were active in at least one assay; those are over-represented in the sample as a whole. Activity calls are given as the source filed them. How the source made its calls: active means growth percent below 10; inactive means the rest.
measurement_label: growth

Example cases with answers are listed next.
smiles_str=N=C(N)N=Nc1ccc(O)cc1 measurement_label=growth endpoint_value="56.3% [100 µM] (inactive)"
smiles_str=O=S(=O)(NCCNc1cc(-c2cn(-c3ccccc3)nc2-c2cccc(O)c2)ccn1)c1ccc(F)cc1 measurement_label=growth endpoint_value="45.6% (inactive)"
smiles_str=COc1cc(/C=C/c2cc(/C=C/c3ccc(O)c(OC)c3)n(-c3ccc(Cl)cc3)c(=O)n2)ccc1O measurement_label=growth endpoint_value="69.7% (inactive)"
smiles_str=CCCCn1c(-c2ccc(O)cc2)cn2c3c(=O)[nH]c(=O)n(C)c3nc12 measurement_label=growth endpoint_value="53.2% (inactive)"
smiles_str=Cc1ccc(-c2nc([P+](c3ccccc3)(c3ccccc3)c3ccccc3)c(N3CCOCC3)o2)cc1 measurement_label=growth endpoint_value="0.0247% (active)"
smiles_str=COc1cccc(-c2nn(-c3ccccc3)cc2-c2ccnc(NCCCO)c2)c1 measurement_label=growth endpoint_value="23.4% (inactive)"
smiles_str=O=C(O)/C(=C/c1ccc(O)cc1)c1ccccc1 measurement_label=growth endpoint_value="88.4% (inactive)"
smiles_str=Clc1cc(Cl)cc(Nc2ccc3c(OCCCN4CCOCC4)cccc3n2)c1 measurement_label=growth endpoint_value="54.9% (inactive)"
smiles_str=COC(=O)[C@]12CC[C@@H](C)[C@H](C)[C@@H]1C1=CC[C@@H]3[C@@]4(C)C=C(O)C(=O)C(C)=C4CC[C@@]3(C)[C@]1(C)CC2 measurement_label=growth endpoint_value="63% (inactive)"

Now for another entry.
Which growth value is on record for `O=C(/C=C/c1cccc(O)c1)c1ccccc1O` ?
72% (inactive)

----------
Tested on: NCI-H226 lung
assay_notes: NCI-60 one-dose screen, 48 h
details: 10 µM unless noted
This is part of a sample that, as a whole, favours compounds with a hit. Of some 83,000 tested, about 20% had one in any assay. The source made the active and inactive calls. The calls were made as follows: active = growth percent below 10; inactive = the rest.
Allowed answers: T for active, F for inactive

Example results:
compound=O=C(O)c1cccc2c1Cc1cc([N+](=O)[O-])ccc1-2 test_system="NCI-H226 lung" class=F
compound=O=C1/C(=C\c2ccc(Br)o2)SC(=S)N1CCc1ccc(O)cc1 test_system="NCI-H226 lung" class=F
compound=COc1cc(C(=O)/C=C/c2cc(-c3ccc4c(c3)OCO4)n[nH]2)cc(OC)c1OC test_system="NCI-H226 lung" class=F

Just curious, what result did O=C1c2ccccc2NC(c2cn(-c3ccccc3)nc2-c2cccnc2)N1Cc1ccccc1 (stereo not given) get here?
F

For `COc1cccc(-c2nn(-c3ccccc3)cc2-c2ccnc(NCCNS(=O)(=O)c3cccc(F)c3)c2)c1` , what call appears in the results of this test?
F

----------
System: SNB-19 CNS
assay_notes: NCI-60 one-dose screen, 48 h (100 = growth as untreated, 0 = no growth, -100 = all killed)
details: 10 µM unless noted
The panel holds about 83,000 compounds, 20% with a hit somewhere; the sample as a whole holds those more often.
Examples of molecules with documented growth follow.
Write the number in % without appending the unit.

Study these solved cases before continuing.
molecule=N=C(N)c1ccc(S(N)(=O)=O)cc1 test_system="SNB-19 CNS" endpoint_value=99.1
molecule=Cc1cc(N2CCCCC2)nc(N(CCNc2ccnc3cc(Cl)ccc23)Cc2ccco2)n1 test_system="SNB-19 CNS" endpoint_value=-69.9
molecule=C=C(C)[C@@H]1CC[C@]2(C)[C@H](CC[C@@H]3[C@H]4[C@H]5OC[C@@]4(CCC5(C)C)CC[C@]32C)[C@@]1(C)CCCN test_system="SNB-19 CNS" endpoint_value=94.2
molecule=COc1ccc(/C=C2\N=C(c3ccccc3)N(c3cc(OC)c(OC)cc3C(=O)N3N=C(C)CC3=O)C2=O)cc1 test_system="SNB-19 CNS" endpoint_value=99.5

Looking for the measured growth of `O=C(Nc1ccc(/C=C2\SC(=O)N(Cc3ccc(OC(F)(F)F)cc3)C2=O)cc1)c1ccc(Cl)c([N+](=O)[O-])c1` , can you help?
36.8

Param item = `COc1ccc(-c2nc3c(c(C)nn3-c3ccc(F)cc3)c(=O)[nH]2)cc1` ; retrieve measured growth.
75

----------
Test system: UACC-257 melanoma
assay_notes: NCI-60 one-dose screen, 48 h
details: 10 µM unless noted
Compounds without any hit were thinned out: in the full panel of roughly 83,000, 20% have a hit. Activity calls are given as the source filed them. How the source made its calls: active means growth percent below 10; inactive means the rest.
Log the outcome using a class from active, inactive

The examples below pair each entry with its known result.
compound=Cc1cc(C)nc(NC(N)=NCCc2ccccc2)n1 test_system="UACC-257 melanoma" class=inactive
compound=C/C(=N\Nc1cc(C)c2ccccc2n1)c1ccccn1 test_system="UACC-257 melanoma" class=active
compound=Oc1cccc2oc(=S)[nH]c12 test_system="UACC-257 melanoma" class=inactive

Dear all, I need the recorded test outcome for `O=[N+]([O-])c1ccc(/C=N\Nc2ccccc2)cc1` , thank you.
inactive

----------
Tested on: MCF7 breast
assay_notes: NCI-60 one-dose screen, 48 h (100 = growth as untreated, 0 = no growth, -100 = all killed)
details: 10 µM unless noted
Protocol: Growth inhibition of the MCF7 human tumor cell line is measured as a screen for anti-cancer activity. Cells are grown in 96 well plates and exposed to the test compound for 48 hours. Compounds are tested at a single concentration, which is 10^-5 M for most compounds. The reported endpoint is percent growth (GI% or GIPRCNT), where numbers from 0 - 100% represent growth inhibition, and numbers from -100% - 0 represent cell death. For example, a value of 40 represents 60% growth inhibition. […]
About 83,000 compounds went through this panel and 20% of them were active in at least one assay; those are over-represented in the sample as a whole.
This section presents compounds with their documented growth values.
Hi! Could you send only the number? It should be in %, unit omitted.

These recorded examples may help you get a feel for the data.
smiles_str=COc1cc2c3c(c4c5ccccc5[nH]c4c2c(OC)c1OC)C(=O)N(O)C3=O test_system="MCF7 breast" endpoint_value=20.4
smiles_str=O=C(/C=C\c1ccc2c(c1)OCO2)/C=C/c1ccc2c(c1)OCO2 test_system="MCF7 breast" endpoint_value=13.2
smiles_str=Cc1cc(C)c(NC(=O)c2sc3nc4c(cc3c2N)CCCC4)c(C)c1 test_system="MCF7 breast" endpoint_value=23.7
smiles_str=COc1ccc2c(c1)C/C(=C\c1cc(-c3ccc4c(c3)OCO4)n[nH]1)C2=O test_system="MCF7 breast" endpoint_value=34.8
smiles_str=COc1cnc2c(c1)C(=O)c1c-2n(CCCNCCN2CCOCC2)c(=O)c2cc([N+](=O)[O-])ccc12 test_system="MCF7 breast" endpoint_value=3.37

Which value of growth has been reported for `CCc1ccccc1NC(=O)c1sc2nc3c(cc2c1N)CCCC3` in the records?
19.8

Consider the compound shown here: `COC1=C(Br)C(=O)C(OC)=C(Br)C1=O` What is its recorded growth?
83

For the compound `COC(=O)[C@]12CC[C@@H](C)[C@H](C)[C@@H]1C1=CC[C@@H]3[C@@]4(C)C=C(O)C(=O)C(C)=C4CC[C@@]3(C)[C@]1(C)CC2` , what growth is on record?
17.2

What value of growth has been reported for the following compound? `C=C(C)[C@@H]1CC[C@]2(/C=N/Nc3ccncc3)CC[C@]3(C)[C@H](CC[C@@H]4[C@@]5(C)CCCNC(C)(C)[C@@H]5CC[C@]43C)[C@@H]12`
63.2

----------
System: UO-31 renal
assay_notes: NCI-60 one-dose screen, 48 h
details: 10 µM unless noted
The panel holds about 83,000 compounds, 20% with a hit somewhere; the sample as a whole holds those more often. Activity calls are given as the source filed them. The calls were made as follows: active = growth percent below 10; inactive = the rest.
Give your call using only these classes: active, inactive

compound=CCN1CCN(C(=O)[C@]23CCC(C)(C)C[C@H]2C2=CC[C@@H]4[C@@]5(C)CC/C(=N/O)C(C)(C)[C@@H]5CC[C@@]4(C)[C@]2(C)CC3)CC1 test_system="UO-31 renal" class=inactive

Hi, sorry to bother you, what did the test record for `COc1ccc(-c2n/c(=C\c3c(O)[nH]c4ccc(OC)cc34)cc3c2=Nc2ccccc2-3)cc1` ?
inactive

Please share the test call associated with `COc1c(N)c2c(c([N+](=O)[O-])c1OC)C(=O)OC2` .
inactive

What call does the record list for `C[C@@H](C(=O)O)c1ccc2c3cc(Cl)ccc3n(Cc3cc(=O)oc4ccc(Cl)cc34)c2c1` ?
inactive

Tell me the assay call for `COc1ccc2nc(-c3c(-c4ccccc4)nc4ncccn34)[nH]c2c1` please.
inactive

Hey, what did the test say about `Cc1cc(N2CCCCC2)nc(N(CCNc2ccnc3cc(Cl)ccc23)Cc2ccco2)n1` ?
inactive

Assay result, entry `Cn1cc(-c2csc(-c3cn(CCCN4CCCCC4)c4ccc(Br)cc34)n2)c2cccnc21` — outcome?
active

Recorded test call requested for `COc1cccc(-c2nn(-c3ccccc3)cc2-c2ccnc(NCCNS(=O)(=O)c3cccc(F)c3)c2)c1`
inactive
